- System: SW620
- TEST_DESCRIPTION: Anticancer activity (MTS assay) in SW620 cells
- Assay type: cell-based, human
- CONDITION_PARAMETERS: Homo sapiens, SW-620, 72 hours
READOUT_NAME: IC50 (nM)
Numbers only, in nM.

# get_value(readout='IC50', item= COC1=C2C[C@@H](C)C[C@H](OC)[C@H](O)[C@@H](C)/C=C(\C)[C@H](OC(N)=O)[C@@H](OC)/C=C\C=C(/C)C(=O)NC(=CC1=O)C2=O [GA, Geldanamycin, reference compound] )
6.2

* * *

- System: HT29
- TEST_DESCRIPTION: Anticancer activity (MTS assay) in HT29 cells
- Format: cell-based, human
- CONDITION_PARAMETERS: Homo sapiens, HT-29, 72 hours
READOUT_NAME: IC50 (nM)
Give bare numbers, in nM.

Recorded IC50 for COC1=C2C[C@@H](C)C[C@H](OC)[C@H](O)[C@@H](C)/C=C(\C)[C@H](OC(N)=O)[C@@H](OC)/C=C\C=C(/C)C(=O)NC(=CC1=O)C2=O [GA, Geldanamycin, reference compound] , please?
24.5

* * *

For each record, write down the corresponding pIC50.
- Test system: MCF7
- TEST_DESCRIPTION: Anticancer activity (MTS assay) in MCF7 cells
- Assay type: cell-based, human
- CONDITION_PARAMETERS: 72 hours
pIC50: −log10 of the molar value.

Solved cases below.
>>> reported_value("COC1C=CC=C(C)C(=O)NC2=CC(=O)C(NCCOC3OC(CO)C(O)C(O)C3O)=C(CC(C)CC(OC)C(O)C(C)C=C(C)C1OC(N)=O)C2=O (stereo not drawn) [compound 25]")
"< 4.60"
>>> reported_value("COC1C=CC=C(C)C(=O)NC2=CC(=O)C(NCCOC3OC(CO)C(O)C(O)C3O)=C(CC(C)CC(OC)C(O)C(C)C=C(C)C1OC(N)=O)C2=O (stereo not drawn) [compound 24]")
6.12
>>> reported_value("COC1C=CC=C(C)C(=O)NC2=CC(=O)C(NCCOCCOC3OC(CO)C(O)C(O)C3O)=C(CC(C)CC(OC)C(O)C(C)C=C(C)C1OC(N)=O)C2=O (stereo not drawn) [compound 28]")
"< 4.66"

List the reported pIC50 of each molecule below.
1. COC1C=CC=C(C)C(=O)NC2=CC(=O)C(NCCCOC3OC(CO)C(O)C(O)C3O)=C(CC(C)CC(OC)C(O)C(C)C=C(C)C1OC(N)=O)C2=O (stereo not drawn) [compound 26]
2. COC1C=CC=C(C)C(=O)NC2=CC(=O)C(NCCCCCOC3OC(CO)C(O)C(O)C3O)=C(CC(C)CC(OC)C(O)C(C)C=C(C)C1OC(N)=O)C2=O (stereo not drawn) [compound 27]
3. COC1C=CC=C(C)C(=O)NC2=CC(=O)C(NCCOC3OC(CO)C(OC4OC(CO)C(O)C(O)C4O)C(O)C3O)=C(CC(C)CC(OC)C(O)C(C)C=C(C)C1OC(N)=O)C2=O (stereo not drawn) [compound 29]

1. < 4.92
2. < 4.77
3. < 4.66
